Assay: Toxicity against Artemia salina
Type: organism-based
Details: in vivo, read-out: ED50 (the source's name)
Record form. Attribute: LC50. Fill in for each entry.
Enter your answer as a number in µM; do not include the unit.

Data request, read-out LC50, for CC(=O)/C=C/[C@@]12O[C@]1(C)C[C@@H](O)[C@H](O[C@@H]1O[C@H](CO)[C@@H](O)[C@H](O)[C@H]1O)C2(C)C
10.9

Which LC50 value belongs to N#C[C@H](O[C@@H]1O[C@H](CO)[C@@H](O)[C@H](O)[C@H]1O)c1ccc(O)cc1 ?
0.96

What value of LC50 has been reported for the following compound? COc1cc(O[C@@H]2O[C@H](CO)[C@@H](O)[C@H](O)[C@H]2O)cc(OC)c1OC
28.9

// LC50 lookup, key: C=C[C@](C)(CC/C=C(\C)CO)O[C@@H]1O[C@H](CO)[C@@H](O)[C@H](O)[C@H]1O
21.8
